Here, each record is paired with measured pIC50 data.
Target: Neuronal acetylcholine receptor; alpha4/beta4 (Rattus norvegicus, UniProt P09483+P12392)
Sequence (P09483 whole entry): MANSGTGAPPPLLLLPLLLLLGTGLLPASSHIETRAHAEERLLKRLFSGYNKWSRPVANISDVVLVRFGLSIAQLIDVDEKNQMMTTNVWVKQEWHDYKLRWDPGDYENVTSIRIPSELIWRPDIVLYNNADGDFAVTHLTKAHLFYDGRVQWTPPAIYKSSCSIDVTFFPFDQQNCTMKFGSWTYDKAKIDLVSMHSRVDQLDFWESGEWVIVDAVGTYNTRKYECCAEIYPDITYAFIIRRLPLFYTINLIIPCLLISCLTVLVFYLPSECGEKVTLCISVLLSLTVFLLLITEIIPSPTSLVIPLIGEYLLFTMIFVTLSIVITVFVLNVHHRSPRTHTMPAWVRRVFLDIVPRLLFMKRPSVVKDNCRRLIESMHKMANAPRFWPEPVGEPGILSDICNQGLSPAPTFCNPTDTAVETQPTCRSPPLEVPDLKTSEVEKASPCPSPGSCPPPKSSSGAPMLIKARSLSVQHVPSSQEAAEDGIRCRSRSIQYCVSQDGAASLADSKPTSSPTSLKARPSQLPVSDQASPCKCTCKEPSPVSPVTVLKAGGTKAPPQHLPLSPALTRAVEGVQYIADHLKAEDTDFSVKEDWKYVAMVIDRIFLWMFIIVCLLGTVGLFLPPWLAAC
Sequence (P12392 whole entry): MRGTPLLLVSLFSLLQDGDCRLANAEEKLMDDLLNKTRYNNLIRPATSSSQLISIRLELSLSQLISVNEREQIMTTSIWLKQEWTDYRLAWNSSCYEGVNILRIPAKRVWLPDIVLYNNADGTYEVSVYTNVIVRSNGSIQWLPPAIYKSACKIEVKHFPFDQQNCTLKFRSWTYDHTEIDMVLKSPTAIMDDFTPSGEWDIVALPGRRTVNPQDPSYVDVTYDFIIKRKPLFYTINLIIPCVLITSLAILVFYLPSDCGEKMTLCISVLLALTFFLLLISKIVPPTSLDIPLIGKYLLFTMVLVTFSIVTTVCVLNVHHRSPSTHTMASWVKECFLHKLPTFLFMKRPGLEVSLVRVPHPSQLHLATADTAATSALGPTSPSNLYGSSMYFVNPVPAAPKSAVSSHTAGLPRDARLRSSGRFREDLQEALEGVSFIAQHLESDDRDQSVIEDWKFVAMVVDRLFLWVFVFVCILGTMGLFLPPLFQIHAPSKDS
Experiment: Antagonist activity at rat alpha4beta4 nAChR expressed in xenopus oocytes assessed as inhibition of Ach- induced response at -70 mV holding potential preincubated for 5 mins followed by Ach stimulation by voltage-clamp based electrophysiological method
pIC50: −log10 of the molar value. Where a SMILES comes first, the peptide text is derived from it. Bridges are numbered along the chain shown (N, C = ends).

Which pIC50 reading was recorded for the compound C[C@@H]1NC(=O)[C@@H]2CSSC[C@H](NC(=O)[C@@H](N)CCC(N)=O)C(=O)N[C@@H](CSSC[C@@H](C(=O)N[C@@H](CCCNC(=N)N)C(=O)O)NC(=O)[C@H](Cc3cnc[nH]3)NC(=O)[C@H](CCC(=O)O)NC(=O)[C@H](Cc3cnc[nH]3)NC1=O)C(=O)N[C@@H](CO)C(=O)N[C@@H](CC(N)=O)C(=O)N1CCC[C@H]1C(=O)N1CCC[C@H]1C(=O)N2 (H-QCCSNPPCAHEHCR-OH; disulfide 2-8, 3-13) ?
< 5.00

Param item: C[C@@H]1NC(=O)[C@@H]2CSSC[C@H](NC(=O)[C@@H](N)CCC(N)=O)C(=O)N[C@@H](CSSC[C@@H](C(N)=O)NC(=O)[C@H](Cc3cnc[nH]3)NC(=O)[C@H](CCC(=O)O)NC(=O)[C@H](Cc3cnc[nH]3)NC1=O)C(=O)N[C@@H](CO)C(=O)N[C@@H](CC(N)=O)C(=O)N1CCC[C@H]1C(=O)N1CCC[C@H]1C(=O)N2 (H-QCCSNPPCAHEHC-NH2; disulfide 2-8, 3-13)
< 5.00

Param item: C[C@@H]1NC(=O)[C@@H]2CSSC[C@H](NC(=O)CN)C(=O)N[C@@H](CSSC[C@@H](C(=O)N[C@@H](CCCNC(=N)N)C(=O)O)NC(=O)[C@H](Cc3cnc[nH]3)NC(=O)[C@H](CCC(=O)O)NC(=O)[C@H](Cc3cnc[nH]3)NC1=O)C(=O)N[C@@H](CO)C(=O)N[C@@H](CC(N)=O)C(=O)N1CCC[C@H]1C(=O)N1CCC[C@H]1C(=O)N2 (H-GCCSNPPCAHEHCR-OH; disulfide 2-8, 3-13)
< 5.00

***
Which pIC50 reading was recorded for the compound C[C@@H]1NC(=O)[C@@H]2CSSC[C@H](NC(=O)CN)C(=O)N[C@@H](CSSC[C@@H](C(N)=O)NC(=O)[C@H](Cc3cnc[nH]3)NC(=O)[C@H](CCC(=O)O)NC(=O)[C@H](Cc3cnc[nH]3)NC1=O)C(=O)N[C@@H](CO)C(=O)N[C@@H](CC(N)=O)C(=O)N1CCC[C@H]1C(=O)N1CCC[C@H]1C(=O)N2 (H-GCCSNPPCAHEHC-NH2; disulfide 2-8, 3-13) ?
< 5.00
